- System: SN12C renal
- Test Summary: NCI-60 one-dose screen, 48 h
- Conditions: 10 µM unless noted
Compounds without any hit were thinned out: in the full panel of roughly 83,000, 20% have a hit. Calls of active or inactive are those of the source. How the source made its calls: active means growth percent below 10; inactive means the rest.
Labels: Y for active, N for inactive

# Molecule, Answer Label
rows = [
    ("O=C(O)COc1ccc(Cl)c(Cl)c1", "N"),
    ("COc1ccc(N2CCN(C(=O)c3sc4nc(C)c(Br)c(C)c4c3N)CC2)cc1", "N"),
    ("O=C(CN1CCN(c2cc3c(cc2F)c(=O)c(C(=O)O)cn3C2CC2)CC1)N/N=C/c1ccco1", "N"),
    ("CCOC(=O)C1=C(C)C(Cl)=N/C1=C\\c1[nH]c(Cl)c(C)c1C(=O)OCC", "N"),
    ("C=CN(C(=O)N1CCN(c2cc3c(cc2F)c(=O)c(C(=O)O)cn3C2CC2)CC1)c1nc(-c2ccc(OC)cc2)cs1", "N"),
    ("O=C(Cc1cccc(OC(F)(F)F)c1)Nc1ccc(CCCCc2nnc(NC(=O)Cc3ccccn3)s2)nn1", "N"),
    ("Cc1cccc(-c2nc(Nc3ccc4ncsc4c3)c3ccccc3n2)n1", "N"),
    ("O=S(=O)(Nc1cc(Sc2cccc3cccnc23)c(O)c2ccccc12)c1ccccc1", "N"),
    ("CC(=O)O[C@H]1C[C@@H]2C(C)(C)C(=O)CC[C@@]2(C)c2ccc(C(C)C)cc21", "N"),
    ("COc1ccc(/C=C/C(=O)c2ccc(NC(=O)CSc3nc4c([nH]3)c(=O)n(C)c(=O)n4C)cc2)cc1OC", "N"),
    ("CS(=O)(=O)Nc1cc(-c2ccc3ncc(C#N)c(Nc4ccc(F)c(Cl)c4)c3c2)cnc1Cl", "N"),
    ("Cc1ccccc1Nc1cc(O)c2c(=O)cc(-c3ccccc3)oc2c1", "N"),
    ("COc1cccc(Nc2ncnc3cc(NC(=O)CCl)ccc23)c1", "Y"),
    ("C/C(=N\\O)[C@@H]1CC[C@]2(CO)CC[C@]3(C)[C@H](CC[C@@H]4[C@@]5(C)CCCNC(C)(C)[C@@H]5CC[C@]43C)[C@@H]12", "N"),
    ("FC(F)(F)c1ccc(Cn2cc(CSc3nc4ccccc4s3)nn2)cc1", "N"),
    ("C[C@]1(O)CC(=O)[C@]2(O)C3=C(C=C[C@]2(O)C1)C(=O)c1c(O)cccc1C3=O", "Y"),
    ("COc1ccc(Cn2cc3c(c2-c2ccccc2)CCc2cnoc2-3)cc1", "N"),
    ("CC1=CCC(OC(=O)C(C)(C)CC(O)(C(C)O)C(O)C2(C)C=CC(Cc3ccc(C(C)C)cc3)(C(C)C)CC2)(C(C)C)CC1 (centres undefined)", "N"),
    ("COc1cc(Cl)c(C)cc1NC(=O)c1cc2ccccc2cc1O", "Y"),
    ("Cn1cc(-c2csc(-c3c[nH]c4ccc(F)cc34)n2)c2ccnc(Cl)c21", "N"),
    ("O=C1/C(=C/c2ccc(F)cc2)CN(C(=O)C(Cl)Cl)C/C1=C\\c1ccc(F)cc1", "Y"),
    ("CCn1c(-c2cc3c([nH]c4ccccc43)c(-c3cccc(O)c3)n2)n[nH]c1=S", "N"),
    ("O=C(Oc1ccc(CCl)cc1)c1ccccc1", "Y"),
    ("C#Cc1cccc(Nc2nc(C)nc3cc(NC(=O)CCl)ccc23)c1", "Y"),
    ("Cc1nc2c(=O)nc3s/c(=C\\c4ccco4)c(=O)n3c2nc1C", "N"),
    ("CN1CCN(C(=O)C(C)(C)c2ccc(C(=O)Nc3cn4cc(-c5ccncc5)ccc4n3)cc2)CC1", "N"),
    ("CCc1ccc(CCC(=O)Nc2ncc(Cc3cc(Cl)ccc3Cl)s2)o1", "N"),
    ("O=C1Nc2ccccc2C1(c1c[nH]c2ccccc12)c1c[nH]c2ccccc12", "Y"),
    ("O=C(Nc1ncc(Cc2ccccc2)s1)c1ccc2c(c1)OCCCO2", "N"),
    ("CS(=O)(=O)c1nnc(-c2ccccc2)s1", "N"),
    ("COc1ccc(/C=C/C(c2cc(OC)c(OC)c(OC)c2)n2ccnc2)cc1O (centres undefined)", "N"),
    ("COc1cccc(/C=N/NC(=O)c2ccccc2N2CCCC2)c1O", "N"),
    ("CCNC(=O)Oc1ccc(/C(=C(/CC)Cc2ccccc2)c2ccc(OCCN3CCCC3)cc2)cc1", "N"),
    ("Cc1ccc(S(=O)(=O)OCCCOS(=O)(=O)c2ccc(C)cc2)cc1", "N"),
    ("CCCCCN(CCCCC)CC(O)c1cc(C)c2ccc3cc(C(C)C)ccc3c2c1 (centres undefined)", "Y"),
    ("CN1CCN(C(=O)[C@@]2(C)CC[C@]3(C)CC[C@]4(C)C(=CC[C@@H]5[C@@]6(C)CCC(=O)NC(C)(C)[C@@H]6CC[C@]54C)[C@@H]3C2)CC1", "N"),
    ("O=C1c2ccccc2C(=O)C1c1ccc(Br)cc1", "N"),
    ("Cc1nn(-c2ccccc2)c(N)c1N=C1NC(=O)/C(=C/c2ccc(Br)cc2)S1", "N"),
    ("Cc1ccc(Cl)cc1NC(=O)c1sc2nc3c(cc2c1N)C(=O)CCC3", "N"),
]

Cited source for all entries: PubChem BioAssay (NCI)
